tested on: HT29 colon; experiment: NCI tumour cell line growth inhibition, 48 h
*1 amine or outer side, *2 acyl side, *3 side chain or, on linkers, in order; H or OH if unused. Where a SMILES comes first, the peptide text is derived from it. Bridges are numbered along the chain shown (N, C = ends). [ ]: non-standard residue; d: D form. ξ: configuration not given here. X35 = CC[C@H](C)[C@@H](N[*:1])[C@@H](O)CC(=O)O[C@H](C(=O)[C@H](C)C(=O)[*:2])C(C)C; NMeY = CN[C@@H](Cc1ccc(O)cc1)C(=O)O; dNMeL = CN[C@H](CC(C)C)C(=O)O; ξΔPro = O=C(O)C1C=CCN1
QUANTITY KIND: TGI

>  <COMPOUND>
CC1(C)[C@@H](OC(N)=O)C=C[C@]2(CO)[C@H]3CC[C@]4(C)[C@@H](c5ccc(=O)oc5)[C@@H](Cl)C[C@]4(O)C3=CC[C@@H]12

>  <TEST RESULT>
0.0154 µM

$$$$
>  <COMPOUND>
COc1nc(C)cc2c(=O)n(-c3ccccc3)n(CC(O)CN3CCN(c4ccc(Cl)cc4)CC3)c(=O)c12 (configuration not stated)

>  <TEST RESULT>
> 50 µM

$$$$
>  <COMPOUND>
CNCCNc1nc2ccccc2c2c(=O)c3cc(F)ccc3sc12

>  <TEST RESULT>
3.2 µM

$$$$
>  <COMPOUND>
Nc1ccc2c(c1)NC(=O)[C@@H]1CCCN1C2=O

>  <TEST RESULT>
> 100 µM

$$$$
>  <COMPOUND>
COc1ccc(C2SCC(=O)N2NC(=O)C(C)Oc2ccc(Cl)cc2Cl)cc1 (configuration not stated)

>  <TEST RESULT>
> 100 µM

$$$$
>  <COMPOUND>
CSc1nsc(S/C=C\C(=O)c2ccc(C)cc2)n1

>  <TEST RESULT>
> 57.1 µM

$$$$
>  <COMPOUND>
CC[C@H](C)[C@H]1NC(=O)[C@@H](NC(=O)[C@@H](CC(C)C)N(C)C(=O)C2C=CCN2)[C@@H](C)OC(=O)[C@H](Cc2ccc(OC)cc2)N(C)C(=O)[C@@H]2CCCN2C(=O)[C@H](CC(C)C)NC(=O)[C@@H](C)C(=O)[C@H](C(C)C)OC(=O)C[C@@H]1O (some centres not stated) (H-[ξΔPro][dNMeL]T[X35]LP[NMeY](Me); ester 3-C)

>  <TEST RESULT>
< 0.005 µM

$$$$

###

system: SF-268 CNS; test: NCI tumour cell line growth inhibition, 48 h

>  <COMPOUND>
COc1ccc(OC)c(C[P+](c2ccccc2)(c2ccccc2)c2ccccc2)c1

>  <TGI>
> 100 µM

$$$$
>  <COMPOUND>
CCC1(OC(=O)CN)C(=O)OCc2c1cc1n(c2=O)Cc2cc3cc4c(cc3nc2-1)OCO4 (stereo unspecified)

>  <TGI>
> 100 µM

$$$$
>  <COMPOUND>
COC(=O)[C@]1(C)CCC[C@@]2(C)[C@@H]3C[C@@H]4[C@H]5C[C@@]3(CC[C@@H]21)C[C@@]45C

>  <TGI>
31.8 µM

$$$$
>  <COMPOUND>
NC(=S)N/N=C1\CCCC1C(O)(C(F)(F)Cl)C(F)(F)Cl (stereo unspecified)

>  <TGI>
> 10 µM

$$$$
>  <COMPOUND>
CN1C(=O)C2C=CC1C1CCC2N(C)C1=O (stereo unspecified)

>  <TGI>
> 100 µM

$$$$
>  <COMPOUND>
COC(=O)c1ccc(CN2C(=O)C(Cl)=C(Nc3ccc(OC)c(Cl)c3)C2=O)cc1

>  <TGI>
> 50 µM

$$$$
>  <COMPOUND>
Clc1ccc(-c2c(C3=NCCN3)nnn2-c2ccccc2)cc1

>  <TGI>
> 100 µM

$$$$
>  <COMPOUND>
NNC(=O)Cn1ccnn1

>  <TGI>
> 100 µM

$$$$
>  <COMPOUND>
O=c1c(O)cccn1C1OC(CO)C(O)C1O (stereo unspecified)

>  <TGI>
> 100 µM

$$$$
>  <COMPOUND>
COC(=O)c1cc(C)ccc1/C=C1\Cc2c(C)cc(C)cc2C1=O

>  <TGI>
37.1 µM

$$$$
>  <COMPOUND>
CC(C(=O)O)c1ccc(-c2ccccc2)c(F)c1 (stereo unspecified)

>  <TGI>
> 100 µM

$$$$
>  <COMPOUND>
COc1ccccc1NC(=O)C1=C(C)NC(C)=C(C(=O)Nc2ccccc2OC)C1c1ccc(N(C)C)cc1

>  <TGI>
> 100 µM

$$$$
>  <COMPOUND>
Cc1nc2cccc(F)c2c(=O)n1-c1nnc(C(F)(F)F)s1

>  <TGI>
> 10 µM

$$$$
>  <COMPOUND>
COC(=O)c1ccc2c(c1)C(=O)c1c-2n(CCCN)c(=O)c2cc(OC)c(OC)cc12

>  <TGI>
42 µM

$$$$
>  <COMPOUND>
COC(=O)[C@H]1[C@H]2C[C@@H]3c4[nH]c5cc(OC)ccc5c4CCN3C[C@H]2C[C@@H](OC(=O)/C=C/c2cc(OC)c(OC)c(OC)c2)[C@@H]1OC

>  <TGI>
> 100 µM

$$$$
>  <COMPOUND>
CCCCCCNC(=O)n1cc(F)c(=O)[nH]c1=O

>  <TGI>
87.9 µM

$$$$
>  <COMPOUND>
Cc1c(Cl)cccc1NC(=O)/C(Cl)=C(\Cl)C(=O)O

>  <TGI>
40.9 µM

$$$$
>  <COMPOUND>
COc1cc2oc(=O)cc(C)c2cc1OC

>  <TGI>
> 100 µM

$$$$
>  <COMPOUND>
Clc1ccc2c(c1)C(N1CCNCC1)=Nc1ccccc1O2

>  <TGI>
11.8 µM

$$$$
>  <COMPOUND>
CS(=O)(=O)[O-].CS(=O)(=O)[O-].NC1CCCCC1N.[Pt+4] (stereo unspecified)

>  <TGI>
> 100 µM

$$$$
>  <COMPOUND>
CC1CN=C(c2ccc(-c3nc(-c4ccc(C5=NCC(C)N5)cc4)nc(N(C)C)n3)cc2)N1 (stereo unspecified)

>  <TGI>
6.53 µM

$$$$
